// reported intrinsic clearance, human liver microsomes per item
observable: intrinsic clearance, human liver microsomes (mL/min/kg)

>  <compound>
Cn1c(=O)c(C(=O)CSc2nc3ccccc3n2C)c(N)n(Cc2ccccc2)c1=O

>  <result_qualifier>
=

>  <data_value>
839

$$$$
>  <compound>
CCC(CC)N1CC[C@H](O)[C@@](O)(COc2cc(C)ccc2Cl)C1

>  <result_qualifier>
=

>  <data_value>
371

$$$$
>  <compound>
COc1ccc(NC(=O)CN2CCCC2)cc1

>  <result_qualifier>
≤

>  <data_value>
4.74

$$$$
>  <compound>
CC(C)(C)c1ccc(C2=NC3(CCNCC3)NC2=O)cc1

>  <result_qualifier>
=

>  <data_value>
6.52

$$$$
>  <compound>
Cc1cc(C(=O)NCCC2=CSC3=NCCCN23)c2cccc(C)c2n1

>  <result_qualifier>
≤

>  <data_value>
4.74

$$$$
>  <compound>
CCCn1c(=O)n(Cc2ccc(C#N)cc2F)c2ccccc21

>  <result_qualifier>
=

>  <data_value>
53.8

$$$$
>  <compound>
CCc1nnc(N2CCCO2)c(C#N)c1CC

>  <result_qualifier>
=

>  <data_value>
16.6

$$$$
>  <compound>
CC(C)(C)c1nccc(NCc2ccncc2)n1

>  <result_qualifier>
=

>  <data_value>
14.1

$$$$
>  <compound>
Cc1ccc(-n2cc(C(=O)NCCN(C)C)nn2)cc1C

>  <result_qualifier>
≤

>  <data_value>
4.74

$$$$
>  <compound>
O=C(NCCNC(=O)c1cc(-c2ccccc2)nc2ccccc12)c1ccco1

>  <result_qualifier>
=

>  <data_value>
58.6

$$$$
>  <compound>
CC(=O)Nc1ccnn1C1CCN(Cc2ccccc2C#Cc2ccccc2)CC1

>  <result_qualifier>
=

>  <data_value>
82.5

$$$$
>  <compound>
Cc1cnc(Nc2ccc(OCCN3CCCC3)cc2)nc1Nc1cccc(S(=O)(=O)NC(C)(C)C)c1

>  <result_qualifier>
=

>  <data_value>
34.1

$$$$
>  <compound>
Cc1cccc(NC(=O)CN2C(=O)N(C)C3(CCCCC3)C2=O)c1C

>  <result_qualifier>
=

>  <data_value>
506

$$$$
>  <compound>
Cc1ccc(OCC(=O)Nc2cc(C)on2)nc1

>  <result_qualifier>
≤

>  <data_value>
4.74

$$$$
>  <compound>
COC(=O)C1=NOC2(CCN(CCC(C)(C)C)CC2)C1

>  <result_qualifier>
=

>  <data_value>
144

$$$$
>  <compound>
Cc1nccn1-c1ccc(F)cc1CNC(=O)C(C)C

>  <result_qualifier>
=

>  <data_value>
8.38

$$$$
>  <compound>
Cn1c2cc(S(C)=O)sc2c2cnn(Cc3cccc(N)c3)c(=O)c21 (stereo not drawn)

>  <result_qualifier>
=

>  <data_value>
4.92

$$$$
>  <compound>
Cc1cc(F)ccc1CC(=O)N[C@@H]1CCOC[C@H]1OCCO

>  <result_qualifier>
≤

>  <data_value>
4.74

$$$$
>  <compound>
Cc1ccc(C(=O)NCCc2csc(C)n2)cn1

>  <result_qualifier>
=

>  <data_value>
7.45

$$$$
>  <compound>
CC(C)N1CCN(CCCSc2ccccn2)CC1

>  <result_qualifier>
=

>  <data_value>
128

$$$$
>  <compound>
O=C(Nc1nc2ccccc2[nH]1)c1ccncc1

>  <result_qualifier>
≤

>  <data_value>
4.74

$$$$
>  <compound>
O=C(CN1CCCN(c2ccc(C(F)(F)F)cn2)CC1)Nc1ccccc1

>  <result_qualifier>
=

>  <data_value>
112

$$$$
>  <compound>
Brc1ccc(-c2nnc(Cn3cnc4ccccc43)o2)o1

>  <result_qualifier>
≤

>  <data_value>
4.74

$$$$
>  <compound>
Cc1ccc2cccc(OCC(=O)N(C)c3ccccc3)c2n1

>  <result_qualifier>
=

>  <data_value>
126

$$$$
>  <compound>
O=C(CN1CCOC(c2ccc(F)cc2)C1)Nc1ccccc1OC(F)F (stereo not drawn)

>  <result_qualifier>
=

>  <data_value>
93.6

$$$$
>  <compound>
CC1(C(=O)O)CCN(Cc2ccccc2)CC1

>  <result_qualifier>
≤

>  <data_value>
4.74

$$$$
>  <compound>
Cc1ccc(CCNC(=O)N2CC(C)(C)OC(C)(C)C2)cn1

>  <result_qualifier>
=

>  <data_value>
6.58

$$$$
>  <compound>
CN(C)c1nccc(N2CCN(CCCCCF)CC2)n1

>  <result_qualifier>
=

>  <data_value>
32.4

$$$$
>  <compound>
CNC(=O)c1ccc(N(C)C2CCC2)nn1

>  <result_qualifier>
=

>  <data_value>
24.8

$$$$
>  <compound>
O=C(CN1CCC(c2ccccc2)CC1)N1CCNC1=O

>  <result_qualifier>
≤

>  <data_value>
4.74

$$$$
>  <compound>
O=c1c2cccc(C(F)(F)F)c2ncn1C1CCCC1

>  <result_qualifier>
=

>  <data_value>
115

$$$$
>  <compound>
CCCc1ccc(-c2cccc(C(=O)N3CCN(CC(N)=O)CC3)c2)cc1

>  <result_qualifier>
=

>  <data_value>
12.6

$$$$
>  <compound>
O=C(c1cc(-c2ccc(F)cc2)on1)N1CC[C@H](Oc2ccccc2F)[C@@H](O)CC1

>  <result_qualifier>
=

>  <data_value>
48.5

$$$$
>  <compound>
Cc1cc(C(=O)N2CCS(=O)(=O)CC2)c(C)o1

>  <result_qualifier>
≤

>  <data_value>
4.74

$$$$
>  <compound>
CSc1ccc(CN(CCO)C(=O)CCc2cccc(F)c2)cc1

>  <result_qualifier>
=

>  <data_value>
151

$$$$
>  <compound>
COc1cc(OC)c2c(=O)cc(CCC(=O)O)oc2c1

>  <result_qualifier>
≤

>  <data_value>
4.74

$$$$
>  <compound>
Cc1csc(Nc2ccc(C#N)cc2)n1

>  <result_qualifier>
=

>  <data_value>
201

$$$$
>  <compound>
CC(C)c1nc(O)c2nnn(C[C@@H]3CCCN(Cc4cccs4)C3)c2n1

>  <result_qualifier>
=

>  <data_value>
32.1

$$$$
>  <compound>
Cc1ccc2oc(C(=O)N3CC[C@H](O)[C@@H](N4CCOCC4)CC3)cc2c1

>  <result_qualifier>
=

>  <data_value>
16.6

$$$$
>  <compound>
Nc1nn(C(=O)Cc2ccc(F)cc2)c2cccc(F)c12

>  <result_qualifier>
=

>  <data_value>
16.7

$$$$
>  <compound>
Cc1nc(C)c(C(=O)NCc2ncoc2C)s1

>  <result_qualifier>
≤

>  <data_value>
4.74

$$$$
>  <compound>
CC(C)(C)C(=O)N1CCC(CN2C(=O)C(=O)N(C3CCCC3)C2=O)CC1

>  <result_qualifier>
=

>  <data_value>
22.1

$$$$
>  <compound>
O=C(NCC(=O)N1CCN(C2CC2)CC1)c1ccccc1

>  <result_qualifier>
≤

>  <data_value>
4.74

$$$$
>  <compound>
Cc1nc(NCCN2C(=O)CCC2=O)c2c(C)csc2n1

>  <result_qualifier>
=

>  <data_value>
8.08

$$$$
>  <compound>
Cc1ccc2nc(-c3ccc(N(C)C)cc3)[nH]c2c1

>  <result_qualifier>
=

>  <data_value>
120

$$$$
>  <compound>
Cc1cc(C)c(C#N)c(N2CCN(CC(=O)Nc3ccccc3Cl)CC2)n1

>  <result_qualifier>
=

>  <data_value>
125

$$$$
>  <compound>
Cc1noc([C@@H]2C[C@H](NC(=O)c3ccc(F)cc3)CN2C)n1

>  <result_qualifier>
=

>  <data_value>
6.88

$$$$
>  <compound>
C[C@H]1CN2C[C@H](O)C[C@@H]2CN1Cc1cccc2ccccc12

>  <result_qualifier>
=

>  <data_value>
24.2

$$$$
